experimental_system: human sirtuin 2 (SIRT2) (Homo sapiens, UniProt Q8IXJ6)
Sequence (Q8IXJ6 2-389): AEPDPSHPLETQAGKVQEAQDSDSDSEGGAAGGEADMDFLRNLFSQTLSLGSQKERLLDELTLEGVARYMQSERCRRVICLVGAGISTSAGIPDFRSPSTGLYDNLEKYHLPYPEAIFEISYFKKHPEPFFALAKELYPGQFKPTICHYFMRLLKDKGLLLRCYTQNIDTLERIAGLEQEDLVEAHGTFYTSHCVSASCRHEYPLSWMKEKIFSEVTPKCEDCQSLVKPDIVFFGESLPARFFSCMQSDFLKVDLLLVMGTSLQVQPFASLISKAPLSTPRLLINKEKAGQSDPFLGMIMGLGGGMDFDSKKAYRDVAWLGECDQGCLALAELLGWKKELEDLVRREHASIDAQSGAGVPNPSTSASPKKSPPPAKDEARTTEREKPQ
protocol_summary: fluorogenic p2270 trypsin-coupled assay, recombinant human SIRT2
Type: biochemical
condition_context: read-out: Inhibition% ^1/SIRT2-p2270 / @ 100 μM
Each entry gets f if its inhibition at 100 µM stays under 50%, and t if its inhibition at 100 µM is 50% or above.

{"structure_string": "O=C(O)c1ccc(-c2ccc(CNC(=S)Nc3ccccc3)o2)cc1", "answer_label": "f"}
{"structure_string": "O=C(NCc1ccc(-c2ccc(C(=O)O)c(O)c2)o1)Nc1ccccc1", "answer_label": "f"}
{"structure_string": "O=C(NCc1ccc(-c2cc(Cl)ccc2Cl)o1)Nc1cccc2ncccc12", "answer_label": "t"}
{"structure_string": "O=C(NCc1ccc(-c2ccc(C(F)(F)F)cc2)o1)Nc1cccnc1", "answer_label": "f"}
{"structure_string": "O=C(NCc1ccc(-c2ccc(C(=O)O)cc2)o1)Nc1cccc2ncccc12", "answer_label": "t"}
{"structure_string": "O=C(NCc1ccc(-c2ccc(C(=O)O)cc2)o1)Nc1ccccc1", "answer_label": "f"}

###

experimental_system: UniProt:Q8IXJ6
protocol_summary: fluorogenic p2270 trypsin-coupled assay, recombinant human SIRT2
pIC50: −log10 of the molar value.

{"structure_string": "O=C(NCc1ccc(-c2ccc(C(=O)O)cc2)o1)Nc1cccnc1", "pIC50": 5.61}

###

experimental_system: human sirtuin 2 (SIRT2) (Homo sapiens)
protocol_summary: biochemical
Set-up: Fluorogenic p2270 (Ac-Glu-Thr-Asp-Lys(Dec)-AMC) trypsin-coupled assay on recombinant human SIRT2, ex 380/em 460 nm
condition_context: read-out: Inhibition% ^1/SIRT2-p2270 / @ 10 μM

{"compound": "N#C/C(=C\\c1ccc(-c2cc(Cl)ccc2Cl)o1)C(=O)Nc1cccc2ncccc12 [AGK2]", "experimental_system": "human sirtuin 2 (SIRT2) (Homo sapiens)", "inhibition at 10 µM / %": 30}
{"compound": "O=C(NCc1ccc(-c2ccc(C(=O)O)cc2)o1)Nc1ccccc1 [compound 21]", "experimental_system": "human sirtuin 2 (SIRT2) (Homo sapiens)", "inhibition at 10 µM / %": 33}
{"compound": "O=C(O)c1ccc(-c2ccc(CNC(=S)Nc3ccccc3)o2)cc1 [compound 22]", "experimental_system": "human sirtuin 2 (SIRT2) (Homo sapiens)", "inhibition at 10 µM / %": 23}
{"compound": "O=C(NCc1ccc(-c2cc(Cl)ccc2Cl)o1)Nc1cccc2ncccc12 [compound 12]", "experimental_system": "human sirtuin 2 (SIRT2) (Homo sapiens)", "inhibition at 10 µM / %": 33}
{"compound": "O=C(NCc1ccc(-c2ccc(C(=O)O)cc2)o1)Nc1cccc2ncccc12 [compound 20]", "experimental_system": "human sirtuin 2 (SIRT2) (Homo sapiens)", "inhibition at 10 µM / %": 35}
